measuredOn: LK35.2-hPD-L1 cells / PE-labeled PD-1-Ig (Homo sapiens, UniProt Q9NZQ7)
Construct: expressed in transfected cells; host or cells: LK35.2 mouse B cell line
Sequence (Q9NZQ7 19-290): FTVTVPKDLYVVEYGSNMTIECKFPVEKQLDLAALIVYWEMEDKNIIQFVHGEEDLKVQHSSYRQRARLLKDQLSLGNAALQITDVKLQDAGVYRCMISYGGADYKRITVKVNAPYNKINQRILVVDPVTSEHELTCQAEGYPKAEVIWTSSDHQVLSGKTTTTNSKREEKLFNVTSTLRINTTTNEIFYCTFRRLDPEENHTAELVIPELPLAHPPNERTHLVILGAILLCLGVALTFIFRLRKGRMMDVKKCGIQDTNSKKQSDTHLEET
assayNotes: LK35.2-hPD-L1 cell binding high-content screening assay
Assay type: cell-based
conditionParameters: cell binding assay, cell line not given; cluster symbol; read-out: CBA IC50 cluster
Positions of bridges follow the written chain, without caps; N, C: chain ends. Non-standard residues stand in square brackets, D forms with d. Residues, ends and D or L forms follow the SMILES beside them. ξ: configuration not given here. *: point of attachment. Bta = N[C@@H](Cc1csc2ccccc12)C(=O)O; Hyp = O=C(O)[C@@H]1C[C@@H](O)CN1; NMeNle = CCCC[C@H](NC)C(=O)O; NMeM = CN[C@@H](CCSC)C(=O)O; NMeS = CN[C@@H](CO)C(=O)O; NMeA = CN[C@@H](C)C(=O)O; Dap = NC[C@H](N)C(=O)O; Bn = c1ccc(C*)cc1; ξC = NC(CS)C(=O)O; Sar = CNCC(=O)O
endpointLabel: IC50

Please fill in: IC50 reported for CCCC[C@H]1C(=O)N[C@@H](C)C(=O)NC(C(=O)NCC(N)=O)CSCC(=O)N[C@@H](Cc2ccc(O)cc2)C(=O)N(C)[C@@H](C)C(=O)N[C@@H](CC(N)=O)C(=O)N2CCC[C@H]2C(=O)N[C@@H](CN)C(=O)N[C@@H](CC(C)C)C(=O)N2C[C@H](O)C[C@H]2C(=O)N[C@@H](Cc2c[nH]c3ccccc23)C(=O)N[C@@H](CO)C(=O)N[C@@H](Cc2csc3ccccc23)C(=O)N(C)[C@@H](CCSC)C(=O)N1C (stereo partly shown) [Example 9096] ({CH2CO}-Y[NMeA]NP[Dap]L[Hyp]WS[Bta][NMeM][NMeNle]A[ξC]G-NH2; thioether N-14) = 0.158 to 4.71 nM

Please fill in: IC50 reported for CCCC[C@H]1C(=O)N[C@@H](CCCNC(=N)N)C(=O)N[C@H](C(=O)NCC(N)=O)CSCC(=O)N[C@@H](Cc2ccccc2)C(=O)N(C)[C@@H](C)C(=O)N[C@@H](CC(N)=O)C(=O)N2CCC[C@H]2C(=O)N[C@@H](Cc2cnc[nH]2)C(=O)N[C@@H](CC(C)C)C(=O)N(C)CC(=O)N[C@@H](Cc2c[nH]c3ccccc23)C(=O)N[C@@H](CO)C(=O)N[C@@H](Cc2c[nH]c3ccccc23)C(=O)N(C)[C@@H](COCc2ccccc2)C(=O)N1C [Example 6013] ({CH2CO}-F[NMeA]NPHL[Sar]WSW[NMeS](Bn)[NMeNle]RCG-NH2; thioether N-14) = 4.78 to 72.9 nM

Please fill in: IC50 reported for CCCC[C@H]1C(=O)N(C)[C@@H](CCSC)C(=O)N[C@@H](CCCNC(=N)N)C(=O)NC(C(=O)NCC(N)=O)CSCC(=O)N[C@@H](Cc2ccc(O)cc2)C(=O)N(C)[C@@H](C)C(=O)N[C@@H](CC(N)=O)C(=O)N2CCC[C@H]2C(=O)N[C@@H](Cc2cnc[nH]2)C(=O)N[C@@H](CO)C(=O)N2C[C@H](O)C[C@H]2C(=O)N[C@@H](Cc2c[nH]c3ccccc23)C(=O)N[C@@H](CO)C(=O)N[C@@H](Cc2csc3ccccc23)C(=O)N1C (stereo partly shown) [Example 9108] ({CH2CO}-Y[NMeA]NPHS[Hyp]WS[Bta][NMeNle][NMeM]R[ξC]G-NH2; thioether N-14) = 0.158 to 4.71 nM

Please fill in: IC50 reported for CCCC[C@H]1C(=O)N(C)[C@@H](C)C(=O)N[C@@H](CCCNC(=N)N)C(=O)NC(C(=O)NCC(N)=O)CSCC(=O)N[C@@H](Cc2ccc(O)cc2)C(=O)N(C)[C@@H](C)C(=O)N[C@@H](CC(N)=O)C(=O)N2CCC[C@H]2C(=O)N[C@@H](Cc2cnc[nH]2)C(=O)N[C@@H](CC(C)C)C(=O)N2C[C@H](O)C[C@H]2C(=O)N[C@@H](Cc2c[nH]c3ccccc23)C(=O)N[C@@H](CO)C(=O)N[C@@H](Cc2c[nH]c3ccccc23)C(=O)N1C (stereo partly shown) [Example 9055] = 0.158 to 4.71 nM
